testDetails: NCI Yeast Anticancer Drug Screen. Data for the mlh1 rad18 strain (AID 175)
testContext: S. cerevisiae mlh1 rad18 strain growth inhibition; at 5.0 µM (retest, dose inferred, filed as 0.5); stronger effect = higher value
Compounds without any hit were thinned out: in the full panel of roughly 79,000, 15% have a hit.
# key: entry, value: growth inhibition

>  <compound>
Oc1ccccc1N=CC1CCCCC1

>  <growth inhibition, %>
-32

$$$$
>  <compound>
C=CS(=O)(=O)c1ccc(C)cc1

>  <growth inhibition, %>
6

$$$$
>  <compound>
Cc1ccc(OCC2CO2)c(Br)c1 (centres undefined)

>  <growth inhibition, %>
17

$$$$
>  <compound>
O=C(O)c1ccc(C(O)(c2ccccc2)c2ccccc2)cc1

>  <growth inhibition, %>
3

$$$$
>  <compound>
N#C/C(=C1/C(=O)c2ccccc2-c2ccccc21)c1ccccc1

>  <growth inhibition, %>
99

$$$$
>  <compound>
CC1(C)COC(C)(C(=O)O)OC1

>  <growth inhibition, %>
6

$$$$
>  <compound>
N#CSCCSCc1ccc(Cl)cc1

>  <growth inhibition, %>
6

$$$$
>  <compound>
COc1cc2c(cc1O)C1C(O)C(O)C=C3CCN(C2)C31 (centres undefined)

>  <growth inhibition, %>
3

$$$$
>  <compound>
CN(C)c1ccc(C(c2ccc(N(C)C)cc2)c2ccc3c(c2)OCO3)cc1

>  <growth inhibition, %>
98

$$$$
>  <compound>
O=C(CC[P+](c1ccccc1)(c1ccccc1)c1ccccc1)c1ccccc1

>  <growth inhibition, %>
3

$$$$
>  <compound>
CCOC(=O)/C=C(\NC1CC(OC2C[C@](O)(C(C)=O)Cc3c(O)c4c(c(O)c32)C(=O)c2c(OC)cccc2C4=O)OC(C)C1O)C(=O)OCC (some centres undefined)

>  <growth inhibition, %>
34

$$$$
>  <compound>
CN(C(=O)c1ccccc1)C1(COC(=O)c2ccccc2)CCCCC1

>  <growth inhibition, %>
16

$$$$
>  <compound>
CC(=O)Nc1ccc(S(=O)(=O)N/N=C/c2cc(I)cc([N+](=O)[O-])c2O)cc1

>  <growth inhibition, %>
12

$$$$
>  <compound>
N#CC(Cc1ccc(CC(C#N)(c2ccccc2)c2ccccn2)cc1)(c1ccccc1)c1ccccn1 (centres undefined)

>  <growth inhibition, %>
-2

$$$$
>  <compound>
Cc1ccccc1N=Nc1ccccc1

>  <growth inhibition, %>
39

$$$$
>  <compound>
CCCCCC(CN(C)C)C(O)/C=C\c1ccccc1 (centres undefined)

>  <growth inhibition, %>
8

$$$$
>  <compound>
O=C(Cc1ccccc1)NC(C(=O)c1ccccc1)c1ccccc1 (centres undefined)

>  <growth inhibition, %>
35

$$$$
>  <compound>
NCCCCC(N)C(=O)Nc1ccc2ccccc2c1 (centres undefined)

>  <growth inhibition, %>
0

$$$$
>  <compound>
CCN1CCC(O)(/C=C/c2ccccc2)C(C(=O)/C=C/c2ccccc2)C1 (centres undefined)

>  <growth inhibition, %>
19

$$$$
>  <compound>
CCOc1nc(N)nc(C)c1N=Nc1ccc(Cl)cc1

>  <growth inhibition, %>
25

$$$$
>  <compound>
CC(=O)OC(OC(C)=O)c1ccc([N+](=O)[O-])s1

>  <growth inhibition, %>
19

$$$$
>  <compound>
Cc1ccc(S(=O)/C=C/S(=O)(=O)c2ccc(C)cc2)cc1 (centres undefined)

>  <growth inhibition, %>
100

$$$$
>  <compound>
O=c1[nH]c2c([N+](=O)[O-])cc(Cl)cc2nc1/C=C(\O)c1ccco1

>  <growth inhibition, %>
-4

$$$$
>  <compound>
C[Si](C)(C)C1=C([Si](C)(C)C)C(Cl)(Cl)C1=O

>  <growth inhibition, %>
18

$$$$
